Target: Acetylcholinesterase (Rattus norvegicus, UniProt P37136)
Sequence (P37136 whole entry): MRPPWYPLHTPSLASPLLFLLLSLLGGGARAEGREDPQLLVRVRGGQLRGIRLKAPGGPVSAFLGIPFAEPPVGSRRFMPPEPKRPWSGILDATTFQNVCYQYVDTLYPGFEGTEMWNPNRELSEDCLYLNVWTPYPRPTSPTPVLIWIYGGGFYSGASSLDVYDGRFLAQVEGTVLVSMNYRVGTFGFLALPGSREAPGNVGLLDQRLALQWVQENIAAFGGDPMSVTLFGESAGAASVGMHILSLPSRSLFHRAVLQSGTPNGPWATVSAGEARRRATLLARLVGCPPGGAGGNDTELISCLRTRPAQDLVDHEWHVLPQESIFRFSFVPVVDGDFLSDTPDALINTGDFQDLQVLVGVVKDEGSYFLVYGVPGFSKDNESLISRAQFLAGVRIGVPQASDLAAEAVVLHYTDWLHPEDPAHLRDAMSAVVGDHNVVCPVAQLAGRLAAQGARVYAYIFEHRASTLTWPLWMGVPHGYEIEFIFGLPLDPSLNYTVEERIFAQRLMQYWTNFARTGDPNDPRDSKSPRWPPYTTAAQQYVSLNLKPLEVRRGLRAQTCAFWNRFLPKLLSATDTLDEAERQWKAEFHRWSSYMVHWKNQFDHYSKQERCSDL
Experiment: Inhibition of AChE in rat brain Hippocampus
Type: tissue-based
measurement-label: IC50 (µM)
State the answer as a number, implicitly in µM.

compound | unit-label | reading
CN(C)C(=O)Oc1cccc([N+](C)(C)C)c1.[Br-] [NEOSTIGMINE BROMIDE] | µM | 0.07

For the next question, use this compound.
So, "C[N+](C)(C)[C@H](Cc1c[nH]c2ccccc12)C(=O)O.[Cl-]" ? Its IC50 was 0.32
